Assignment: determine reported recovery at 4 h, 10 µM for the given molecules.
measurement.protocol: in vitro
Assay type: in vitro ADME
condition.set: human, pH 7.4, human plasma protein binding assay; read-out: Recovery (%) 2nd
The reply should contain only the number, in %.

In plain terms, CCCC(=O)Nc1ccc(OCC(O)CNC(C)C)c(C(C)=O)c1 (stereo not drawn) [Acebutolol] has a documented recovery at 4 h, 10 µM of 129

Kindly note the recorded recovery at 4 h, 10 µM for CC(=O)CC(c1ccccc1)c1c(O)c2ccccc2oc1=O (stereo not drawn) [Warfarin] , which is 109

The reported value for COCCN(CC1CCCN(Cc2ccccc2)C1)S(=O)(=O)c1ccc2ccccc2c1 (racemic) [compound 2] in terms of recovery at 4 h, 10 µM is 99

# credit: paper PMC5175178
